Data origin, for the record: BindingDB's records for doi:10.1021/acs.jmedchem.7b00782

# assay explanation: Inhibition of LAP (unknown origin)
property measured: pKi
By convention, pKi is the negative base-10 log of a molar concentration.

Guide cases for pKi, answers given:
CC(C)CC(N)B1OC(C)(C)C(C)(C)O1 (centres undefined): 5.89
CC1(C)OB(C(N)Cc2ccccc2)OC1(C)C (centres undefined): 7.30
CC(N)B1OC(C)(C)C(C)(C)O1 (centres undefined): 4.05

Enquiry: Query pKi for CC(C)CC(N)P(=O)(O)C(=O)N[C@H](CC(C)C)C(=O)O (some centres undefined)
Return: 4.25
